Every entry's value here was drawn from patent US20220402995A1.

Target: T1, VLP2 (virus-like particles of AAV2) (AAV2, UniProt P03135 1-735; P03135 1-598; P03135 1-533)
T1 construct: Empty AAV2 capsid; background says about 60 protein molecules, VP1:VP2:VP3 = 1:1:10; Immobilised on the ELISA plate
T1 sequence (P03135 whole entry, chain 1 of 3): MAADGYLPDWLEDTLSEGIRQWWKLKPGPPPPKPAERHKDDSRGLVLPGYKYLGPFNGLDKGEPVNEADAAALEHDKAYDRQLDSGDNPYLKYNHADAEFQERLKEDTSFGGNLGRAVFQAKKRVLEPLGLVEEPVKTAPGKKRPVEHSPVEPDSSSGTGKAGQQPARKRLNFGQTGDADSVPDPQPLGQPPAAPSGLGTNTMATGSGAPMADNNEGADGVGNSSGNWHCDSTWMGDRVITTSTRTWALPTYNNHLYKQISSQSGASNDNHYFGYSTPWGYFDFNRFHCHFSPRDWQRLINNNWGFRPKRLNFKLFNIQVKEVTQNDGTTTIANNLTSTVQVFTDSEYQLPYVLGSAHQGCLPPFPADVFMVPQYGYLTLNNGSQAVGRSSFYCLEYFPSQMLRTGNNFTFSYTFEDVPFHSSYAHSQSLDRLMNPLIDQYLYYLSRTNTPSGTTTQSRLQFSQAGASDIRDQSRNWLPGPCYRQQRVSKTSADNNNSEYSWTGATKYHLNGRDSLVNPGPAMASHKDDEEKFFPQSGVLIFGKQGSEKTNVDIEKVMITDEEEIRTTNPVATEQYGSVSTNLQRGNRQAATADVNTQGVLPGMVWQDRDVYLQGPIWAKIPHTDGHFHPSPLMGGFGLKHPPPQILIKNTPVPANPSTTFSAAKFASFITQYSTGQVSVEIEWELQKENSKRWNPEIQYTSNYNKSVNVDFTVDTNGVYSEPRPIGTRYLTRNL
T1 sequence (P03135 139-735, tags left off, chain 2 of 3): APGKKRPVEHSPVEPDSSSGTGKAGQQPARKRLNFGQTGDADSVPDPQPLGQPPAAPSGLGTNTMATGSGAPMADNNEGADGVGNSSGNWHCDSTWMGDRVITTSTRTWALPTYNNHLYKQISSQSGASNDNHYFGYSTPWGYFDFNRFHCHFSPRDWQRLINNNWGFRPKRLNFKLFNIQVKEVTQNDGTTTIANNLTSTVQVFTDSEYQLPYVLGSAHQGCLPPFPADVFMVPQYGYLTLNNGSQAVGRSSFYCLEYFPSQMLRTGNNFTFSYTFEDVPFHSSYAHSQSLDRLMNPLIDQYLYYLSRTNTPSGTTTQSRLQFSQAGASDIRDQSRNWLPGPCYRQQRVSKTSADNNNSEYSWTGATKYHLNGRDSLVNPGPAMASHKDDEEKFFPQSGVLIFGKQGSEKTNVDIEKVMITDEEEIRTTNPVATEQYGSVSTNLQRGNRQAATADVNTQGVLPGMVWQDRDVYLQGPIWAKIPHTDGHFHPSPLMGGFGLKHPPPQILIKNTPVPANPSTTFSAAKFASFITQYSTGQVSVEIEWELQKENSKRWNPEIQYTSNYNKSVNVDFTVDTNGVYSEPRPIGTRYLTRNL
T1 sequence (P03135 203-735, chain 3 of 3): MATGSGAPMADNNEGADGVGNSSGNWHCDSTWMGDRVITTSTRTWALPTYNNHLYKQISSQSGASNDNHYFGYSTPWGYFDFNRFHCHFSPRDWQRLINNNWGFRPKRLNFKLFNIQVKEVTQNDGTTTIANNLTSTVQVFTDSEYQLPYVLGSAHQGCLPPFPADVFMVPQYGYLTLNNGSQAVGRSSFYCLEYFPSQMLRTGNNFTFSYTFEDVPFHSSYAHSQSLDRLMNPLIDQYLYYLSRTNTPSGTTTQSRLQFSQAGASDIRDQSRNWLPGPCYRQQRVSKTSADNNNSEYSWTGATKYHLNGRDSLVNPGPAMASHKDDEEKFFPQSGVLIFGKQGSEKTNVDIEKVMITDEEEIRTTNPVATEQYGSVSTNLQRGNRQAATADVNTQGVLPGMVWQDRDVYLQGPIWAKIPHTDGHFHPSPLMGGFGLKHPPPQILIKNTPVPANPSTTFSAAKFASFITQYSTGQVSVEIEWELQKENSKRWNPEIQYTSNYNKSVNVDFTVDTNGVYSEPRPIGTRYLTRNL
Protocol summary: ELISA on VLP2; A450 after pH 2.5 30°C 24 h / untreated
# Residual activity [%] values compiled below
Measurement name: Residual activity [%]

Binder: AAV-binding protein No. 29 (Leu333Val, Tyr342Cys) (receptor) MGSAGESVQITLPKNEVQLNAYVVQEPPKGETCTYDWQLITHPRDYSGEMEGKHSQILKLSKLTPGLYEFKVIVEGQNAHGEGYVNVTVKPEPRKNRPPIAIVSPQFQEISLPTTSTVIDGSQSTDDDKIVQYHWEELKGPLREEKISEDTAILKLSKLVPGNYTFSLTVVDSDGATNSTTANLTVNKAVDHHHHHH
Measurement name: Residual activity [%]
Result: 40.2%
//
Binder: AAV-binding protein No. 9 (Pro352Leu) (receptor) MGSAGESVQITLPKNEVQLNAYVLQEPPKGETYTYDWQLITHLRDYSGEMEGKHSQILKLSKLTPGLYEFKVIVEGQNAHGEGYVNVTVKPEPRKNRPPIAIVSPQFQEISLPTTSTVIDGSQSTDDDKIVQYHWEELKGPLREEKISEDTAILKLSKLVPGNYTFSLTVVDSDGATNSTTANLTVNKAVDHHHHHH
Measurement name: Residual activity [%]
Result: 5.6%
//
Binder: AAV-binding protein No. 36 (Tyr355His, Asn387Ser) (receptor) MGSAGESVQITLPKNEVQLNAYVLQEPPKGETYTYDWQLITHPRDHSGEMEGKHSQILKLSKLTPGLYEFKVIVEGQSAHGEGYVNVTVKPEPRKNRPPIAIVSPQFQEISLPTTSTVIDGSQSTDDDKIVQYHWEELKGPLREEKISEDTAILKLSKLVPGNYTFSLTVVDSDGATNSTTANLTVNKAVDHHHHHH
Measurement name: Residual activity [%]
Result: 8.9%
//
Binder: AAV-binding protein No. 45 (Asn329Asp, Tyr342His, Tyr355Cys) (receptor) MGSAGESVQITLPKNEVQLDAYVLQEPPKGETHTYDWQLITHPRDCSGEMEGKHSQILKLSKLTPGLYEFKVIVEGQNAHGEGYVNVTVKPEPRKNRPPIAIVSPQFQEISLPTTSTVIDGSQSTDDDKIVQYHWEELKGPLREEKISEDTAILKLSKLVPGNYTFSLTVVDSDGATNSTTANLTVNKAVDHHHHHH
Measurement name: Residual activity [%]
Result: 47.6%
//
Binder: AAV-binding protein No. 16 (Leu369Gln) (receptor) MGSAGESVQITLPKNEVQLNAYVLQEPPKGETYTYDWQLITHPRDYSGEMEGKHSQILKQSKLTPGLYEFKVIVEGQNAHGEGYVNVTVKPEPRKNRPPIAIVSPQFQEISLPTTSTVIDGSQSTDDDKIVQYHWEELKGPLREEKISEDTAILKLSKLVPGNYTFSLTVVDSDGATNSTTANLTVNKAVDHHHHHH
Measurement name: Residual activity [%]
Result: 10%
//
Binder: AVR2 (AAV-binding protein No. 32, Tyr342Cys-Gly390Ser substitution product) (receptor) MGSAGESVQITLPKNEVQLNAYVLQEPPKGETCTYDWQLITHPRDYSGEMEGKHSQILKLSKLTPGLYEFKVIVEGQNAHSEGYVNVTVKPEPRKNRPPIAIVSPQFQEISLPTTSTVIDGSQSTDDDKIVQYHWEELKGPLREEKISEDTAILKLSKLVPGNYTFSLTVVDSDGATNSTTANLTVNKAVDHHHHHH
Measurement name: Residual activity [%]
Result: 64.7%
